- Organism: Cavia porcellus
- experiment description: Compound was evaluated for inhibition of electrically evoked contractions of the GPI (guinea pig ileum)
- Assay type: functional
test readout: pIC50
For clarity, pIC50 is expressed as the negative log10 of concentration in mol/L.

Inquiry: // query pIC50 value for entry Cc1cc(O)cc(C)c1C[C@H](N)C(=O)N1Cc2ccccc2CC1CN[C@@H](Cc1ccccc1)C(=O)N[C@@H](Cc1ccccc1)C(N)=O (stereo partly specified)
Reply text: 8.11

---

- system name: Mu-type opioid receptor (Rattus norvegicus)
- Sequence (P33535 whole entry): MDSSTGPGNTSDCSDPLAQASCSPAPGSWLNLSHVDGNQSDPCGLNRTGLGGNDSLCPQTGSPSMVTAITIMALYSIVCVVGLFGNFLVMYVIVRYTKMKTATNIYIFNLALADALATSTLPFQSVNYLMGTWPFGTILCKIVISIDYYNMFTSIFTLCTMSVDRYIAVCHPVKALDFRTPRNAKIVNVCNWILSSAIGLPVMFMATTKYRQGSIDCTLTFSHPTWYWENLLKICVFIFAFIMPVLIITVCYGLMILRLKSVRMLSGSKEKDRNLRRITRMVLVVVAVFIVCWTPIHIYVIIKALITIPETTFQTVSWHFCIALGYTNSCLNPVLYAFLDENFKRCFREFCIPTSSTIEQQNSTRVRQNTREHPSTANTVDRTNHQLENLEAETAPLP
Square brackets hold non-standard residues; d marks the D form. Peptide text beside a SMILES is read from it. NMeDmt = CN[C@@H](Cc1c(C)cc(O)cc1C)C(=O)O; Tic = O=C(O)[C@@H]1Cc2ccccc2CN1
Parameter: pKi. Scope: all listed entries.
For clarity, pKi is expressed as the negative log10 of concentration in mol/L.

{"columns": ["compound", "system name", "pKi"],
 "data": [
  ["CN[C@@H](Cc1c(C)cc(O)cc1C)C(=O)N1Cc2ccccc2C[C@H]1C(=O)N[C@@H](Cc1ccccc1)C(=O)N[C@@H](Cc1ccccc1)C(N)=O (H-[NMeDmt][Tic]FF-NH2)", "Mu-type opioid receptor (Rattus norvegicus)", 8.39]
]}

We next turn to a different compound, shown below.
Inquiry: // query pKi value for entry CN[C@@H](Cc1c(C)cc(O)cc1C)C(=O)N1Cc2ccccc2CC1CN[C@@H](Cc1ccccc1)C(=O)N[C@@H](Cc1ccccc1)C(N)=O (some centres not stated)
Reply text: 7.12
